# Target Of Assay: FGFR1 (UniProt P11362)
# Sequence (P11362 whole entry, looked up): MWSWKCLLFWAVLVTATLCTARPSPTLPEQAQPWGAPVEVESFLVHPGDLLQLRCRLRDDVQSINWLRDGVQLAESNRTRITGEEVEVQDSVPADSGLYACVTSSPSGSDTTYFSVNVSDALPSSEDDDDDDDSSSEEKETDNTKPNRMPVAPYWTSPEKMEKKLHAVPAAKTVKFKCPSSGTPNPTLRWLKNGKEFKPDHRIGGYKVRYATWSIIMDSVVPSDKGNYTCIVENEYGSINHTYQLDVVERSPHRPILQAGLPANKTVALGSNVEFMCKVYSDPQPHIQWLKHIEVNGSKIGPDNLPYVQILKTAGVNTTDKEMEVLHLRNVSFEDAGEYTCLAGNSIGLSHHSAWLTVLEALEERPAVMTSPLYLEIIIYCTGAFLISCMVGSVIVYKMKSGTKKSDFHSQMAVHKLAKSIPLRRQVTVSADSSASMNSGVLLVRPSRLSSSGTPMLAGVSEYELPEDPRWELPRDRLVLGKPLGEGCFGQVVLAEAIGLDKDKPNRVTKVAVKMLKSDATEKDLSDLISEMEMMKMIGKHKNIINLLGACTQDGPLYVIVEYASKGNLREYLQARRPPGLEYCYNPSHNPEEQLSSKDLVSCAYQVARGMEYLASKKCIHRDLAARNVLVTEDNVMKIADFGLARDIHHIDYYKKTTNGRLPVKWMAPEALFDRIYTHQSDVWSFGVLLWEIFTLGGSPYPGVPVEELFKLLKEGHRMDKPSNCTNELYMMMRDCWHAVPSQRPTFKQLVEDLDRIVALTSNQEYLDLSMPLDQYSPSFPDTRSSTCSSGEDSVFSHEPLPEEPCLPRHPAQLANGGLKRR
# Protocol Text: phosphorylation enrichment, bacterial display (enrichment ratio); higher = better substrate or ligand; peptides without Tyr show the background;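 note: 11-residue human phosphosite peptides and single-mutation variants displayed on the E. coli surface, counted by deep sequencing, each peptide's frequency after selection divided by its frequency in the unselected input library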;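 note: frequency after pTyr selection over input frequency; kinase dosed for 20-30% of maximal phosphorylation in three min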
List of phosphorylation enrichment values.
Quantity: phosphorylation enrichment

INSERT INTO assay_data (sequence, quantity, observed_result) VALUES
  ('QMEKICTQQIQ [CCNB1IP1_Y125_Y125C]', 'phosphorylation enrichment', 1),
  ('CTIIHYNFMCN [TP53_Y234_T231I_YF]', 'phosphorylation enrichment', 0.524),
  ('NSFKFYMSDDI [ATRX_Y204_C200S_YF]', 'phosphorylation enrichment', 0.53),
  ('SVTCTYSPALK [TP53_Y126_N131K]', 'phosphorylation enrichment', 0.407),
  ('GGGGSYNVFGN [HNRNPA1_Y312_D314V]', 'phosphorylation enrichment', 0.467),
  ('AKKVFYVIETR [SHH_Y253]', 'phosphorylation enrichment', 0.542),
  ('HHIDYYKKTTN [FGFR1_Y654]', 'phosphorylation enrichment', 0.568),
  ('HFMELYDLNRD [BBS2_Y648_R643H_YF]', 'phosphorylation enrichment', 0.497),
  ('VERRVYAEDPY [PCCA_Y401_C398R]', 'phosphorylation enrichment', 0.631),
  ('WVFNHYRWFIW [BRCA2_Y2624_I2627F_YF]', 'phosphorylation enrichment', 0.49),
  ('LREIRYQGGNR [VWF_Y1570_V1565L]', 'phosphorylation enrichment', 0.671),
  ('RLLVVYPWTER [HBB_Y36_Q40E]', 'phosphorylation enrichment', 0.513),
  ('TRSFDYMEGED [FGF7_Y58_G62E_YF]', 'phosphorylation enrichment', 0.827),
  ('DRLASDLDKVR [KRT10_Y160_Y160D]', 'phosphorylation enrichment', 0.439),
  ('HVIKLFGACSQ [RET_Y791_Y791F]', 'phosphorylation enrichment', 0.709),
  ('LTFPDYLPCSV [SAG_Y129]', 'phosphorylation enrichment', 3.74),
  ('VRRVGYVSGWG [HP_Y280_G276R]', 'phosphorylation enrichment', 0.373),
  ('VDTRAYFTSAT [MT-CO1_Y304]', 'phosphorylation enrichment', 0.397),
  ('AEPNIYQEKLS [USP54_Y1233_D1231N]', 'phosphorylation enrichment', 0.442),
  ('DSLASYLDKVR [KRT10_Y160_R156S]', 'phosphorylation enrichment', 0.5),
  ('PMDTYYDSTRG [DYNC2H1_Y2231]', 'phosphorylation enrichment', 3.15),
  ('RDMMDYMPQGV [CYP21A2_Y259_L261P]', 'phosphorylation enrichment', 0.799),
  ('NLTLKYPIEHG [ACTA1_Y71_I66N]', 'phosphorylation enrichment', 0.598),
  ('LLVVLCKYRCY [PSEN1_Y154_Y154C]', 'phosphorylation enrichment', 0.414),
  ('SMEGLYSSAQD [CLIC5_Y111_T114A]', 'phosphorylation enrichment', 0.522),
  ('KPNMNYDKLSR [FLI1_Y332]', 'phosphorylation enrichment', 0.416),
  ('PLQHVYKIGGI [EEF1A2_Y254_D252H]', 'phosphorylation enrichment', 0.649),
  ('IFKAAYFGVFD [SLC25A4_Y191_R188K_YF]', 'phosphorylation enrichment', 0.529),
  ('TQRPYYKGGGG [TYROBP_Y112]', 'phosphorylation enrichment', 0.558),
  ('YPKARYRWLVL [APTX_Y214_H215R]', 'phosphorylation enrichment', 0.611),
  ('HKETGYVVERP [BCLAF1_Y466_L461H]', 'phosphorylation enrichment', 0.582),
  ('WCSNDYLGMSQ [ALAS2_Y199_R204Q]', 'phosphorylation enrichment', 3.03),
  ('LVMFIYDIFGM [SCN1A_Y1684_A1685D]', 'phosphorylation enrichment', 1.66),
  ('NTCNRYCRDEI [ITGB3_Y660]', 'phosphorylation enrichment', 0.492),
  ('GPIFRYDSGGA [CYP11B1_Y81_L83S]', 'phosphorylation enrichment', 0.505),
  ('KRLFAYKMLMA [TMC2_Y209_Q205R_YF]', 'phosphorylation enrichment', 0.458),
  ('IIWDSYTTNKM [GNB4_Y85]', 'phosphorylation enrichment', 0.575),
  ('YADPYYDYEIE [ZC3H18_Y372]', 'phosphorylation enrichment', 9.62),
  ('IGEVVYQWAVM [GRIN2A_Y502_R504W]', 'phosphorylation enrichment', 1.03),
  ('EITSHYRHLLR [ZBTB46_Y14]', 'phosphorylation enrichment', 0.444),
  ('SSTAMYSAPGR [PSMB1_Y8]', 'phosphorylation enrichment', 0.45),
  ('ATLDVYNPFET [SCAMP3_Y41]', 'phosphorylation enrichment', 0.52),
  ('KPNMNYDKLSQ [FLI1_Y332_R337Q]', 'phosphorylation enrichment', 0.468),
  ('ILGRYYETGSI [PAX2_Y73]', 'phosphorylation enrichment', 0.848),
  ('PRAEWYRDDVL [MYOM2_Y317]', 'phosphorylation enrichment', 0.507),
  ('MFNPFYGLFEF [NEDD4L_Y680_YF]', 'phosphorylation enrichment', 0.602),
  ('DLVRPYVHKIL [SF3B1_Y570]', 'phosphorylation enrichment', 0.466),
  ('HSLHDYKEALM [ADA2_Y337]', 'phosphorylation enrichment', 0.371),
  ('DISEPYEVYRI [IRF8_Y107_K108E]', 'phosphorylation enrichment', 0.736),
  ('GFEVVYVTEPI [HSP90AB1_Y512_M513V]', 'phosphorylation enrichment', 0.443),
  ('TSFQMYDKGLV [IARS2_Y231_F227S_YF]', 'phosphorylation enrichment', 0.651),
  ('ENAGYYFRISA', 'phosphorylation enrichment', 0.527),
  ('NTTIHYNYMCN [TP53_Y234_C229N]', 'phosphorylation enrichment', 0.767),
  ('ISDNAYQYMLT [MYH7_Y162]', 'phosphorylation enrichment', 3.44),
  ('LDAFIYDAALL [GRIN2A_Y730_V734L]', 'phosphorylation enrichment', 0.55),
  ('TSHKGYVAFLE [CARD9_Y76_G72S]', 'phosphorylation enrichment', 0.477),
  ('CTTNHYNFMCN [TP53_Y234_I232N_YF]', 'phosphorylation enrichment', 0.626);

Source listed as the supplement of paper PMC10065799.
